Test system: Past. mult.
assay summary: Intraperitoneally infected white mice, Past. mult.
Assay type: in vivo
measurement context: Mus musculus, 2 × sc., with infection and 3 hours later, read-out: average effective dose/confidence interval
Method: In tests carried out on white mice, the intraperitoneally infected animals are treated subcutaneously and perorally as follows: The administration is effected in doses of 1 mg, 3 mg, 10 mg, 30 mg, 100 mg or 300 mg of active substance per kg of body weight initially simultaneously with the infection and a second time 3 hours later.
quantity name: ED50 (mg/kg)
Give the number; mg/kg is assumed, so skip it.

molecule	tested on	endpoint value
Cc1c(C(=O)NCC#N)[n+]([O-])c2ccccc2[n+]1[O-]	Past. mult.	3
Cc1c(C(=O)NCCO)[n+]([O-])c2ccccc2[n+]1[O-] [D, reference compound]	Past. mult.	14
Cc1c(C(=O)NCCC#N)[n+]([O-])c2ccccc2[n+]1[O-]	Past. mult.	5.5

Please find the next molecule below.
Ask: For Cc1c(C(=O)NC(C)(C)C#N)[n+]([O-])c2ccccc2[n+]1[O-] , what is its reported ED50?
Reply: 3.2
